Could you please report measured Inhibition for the items listed next?
# Test system: Plasmodium falciparum
# Measurement description: GSK_TCMDC: Inhibition of Plasmodium falciparum 3D7 in whole red blood cells, using parasite LDH activity as an index of growth. Test compounds present at 2uM
# Type: functional
Answers are plain numbers, in %.

As a guide, the following entries are already answered.
{"Structure": "CCN(c1cc(C)nc(Nc2ccc(Cl)cc2)n1)[C@H]1CCN(Cc2ccccc2)C1", "Assayed system": "Plasmodium falciparum", "Units of measure": "%", "Inhibition": 94}
{"Structure": "COc1ccc(-c2ccc(S(=O)(=O)Nc3cc4c(cc3OC(C)C)CCN(C)CC4)cc2)cc1.Cl", "Assayed system": "Plasmodium falciparum", "Units of measure": "%", "Inhibition": 98}
{"Structure": "Cc1ncccc1-c1cccc2c(NC(=O)Nc3ccc4nccc(N5CCN(C)CC5)c4c3)cccc12.Cl", "Assayed system": "Plasmodium falciparum", "Units of measure": "%", "Inhibition": 100}
{"Structure": "CCCCN1CCCC[C@H]1[C@@H](O)c1ccnc2ccc(OCC)cc12", "Assayed system": "Plasmodium falciparum", "Units of measure": "%", "Inhibition": 100}
{"Structure": "CCNC(C)(C)CN(Cc1ccc(-c2ccc(C(F)(F)F)cc2)cc1)C(=O)Cn1c(SCc2ccc(F)cc2)nc(=O)c2c1CCC2.O=C(O)C(O)C(O)C(=O)O", "Assayed system": "Plasmodium falciparum", "Units of measure": "%", "Inhibition": 95}

Would you mind giving Inhibition for every compound in the list below?
1. Cc1cccc2nc(-c3cccc(-c4cccc(NC(=O)Cc5ccc[n+]([O-])c5)c4)c3)[nH]c12
2. O=C(Nc1cccc(-c2nn3ccccc3c2-c2ccnc(Nc3cccc(N4CCCC4=O)c3)n2)c1)c1cc(F)ccc1F
3. COc1ccc2ncc(F)c(CCN3CC[C@@H](CNCc4cc5c(cn4)OCS5)C3)c2n1.Cl
4. COc1cc(Cc2cnc(N)nc2N)ccc1Oc1ccc(N)cc1
5. COc1ccc(NCc2cccc(-c3cccc(CNCCc4ccccc4)c3)c2)cc1.O=C(O)C(F)(F)F

1. 100
2. 99
3. 98
4. 93
5. 96

Would you mind giving Inhibition for every compound in the list below?
1. COc1ccc(-c2nonc2NC(=O)c2cccc(Cl)c2)cc1OC
2. Cc1[nH]c(C)c(C(F)(F)F)c(=O)c1-c1ccc(Oc2ccc(OC(F)(F)F)cc2)cc1
3. CN1CCN(CC(=O)Nc2ccc(-c3ccc(-c4nc5cc(C(F)(F)F)ccc5[nH]4)cc3)cc2)CC1
4. Br.N=C1N=C(N)NC2(CCCCC2)N1OCCCOc1cccc2ccccc12
5. COc1ccc(CNCCc2cccs2)cc1-c1ccc(S(=O)(=O)NCCN2CCCC2)cc1.O=C(O)C(F)(F)F
6. Cn1c(NC(=O)c2ccc(CNC(=O)c3ccc(O)c(-c4ccc(Cl)c(Cl)c4)c3)cc2)nc2ccccc21

1: 98; 2: 97; 3: 100; 4: 95; 5: 99; 6: 94

Would you mind giving Inhibition for every compound in the list below?
1. COc1ccc2nc3cc(Cl)ccc3c(NCCCN3CCNCC3)c2c1.Cl
2. O=C(Nc1ccc(I)cc1)Nc1ccc(Cn2ncc(N3CCCNCC3)c(Cl)c2=O)cc1.O=C(O)C(F)(F)F

1: 100; 2: 86
